- assay.target: Endothelin receptor type B (Homo sapiens, UniProt P24530)
- Sequence (P24530 whole entry): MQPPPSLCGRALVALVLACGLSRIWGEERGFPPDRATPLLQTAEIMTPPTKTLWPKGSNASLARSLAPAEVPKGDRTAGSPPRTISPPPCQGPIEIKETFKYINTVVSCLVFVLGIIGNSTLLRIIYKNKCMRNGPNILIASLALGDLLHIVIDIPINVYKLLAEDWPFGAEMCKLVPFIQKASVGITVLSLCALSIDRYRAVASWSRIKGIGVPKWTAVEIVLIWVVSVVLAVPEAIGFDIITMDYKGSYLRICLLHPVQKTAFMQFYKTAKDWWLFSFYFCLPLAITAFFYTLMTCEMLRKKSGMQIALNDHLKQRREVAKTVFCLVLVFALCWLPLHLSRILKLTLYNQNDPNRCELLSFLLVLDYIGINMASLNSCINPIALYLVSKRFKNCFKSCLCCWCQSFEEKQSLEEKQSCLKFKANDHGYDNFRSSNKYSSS
- experimental.protocol: Functional inhibition of ET-1 induced [Ca2+] increase in human Girardi heart (hGH) cells, which express Endothelin B receptor
reported.property: IC50 (nM)
Kindly provide the numeric value in nM only, without the unit symbol.

{"chem.smiles": "CCCC[C@@H](NC(=O)[C@@H](Cc1c(C#N)[nH]c2ccccc12)NC(=O)[C@@H](NC(=O)N1[C@H](C)CCC[C@@H]1C)C(C)C)C(=O)O", "unit.name": "nM", "IC50": 4}

As a next step, examine the molecule that follows.
Prompt: For the molecule CCCC[C@@H](NC(=O)[C@@H](Cc1c(Br)[nH]c2ccccc12)NC(=O)[C@@H](NC(=O)N1[C@H](C)CCC[C@@H]1C)C1CC1)C(=O)O , give its reported IC50.
Response: 0.8
